# Test Target: IRAK4 enzyme (Homo sapiens, UniProt Q9NWZ3)
# Construct: purchased Carna Biosciences, Chuo-ku, Kobe, Japan
# Sequence (Q9NWZ3 whole entry): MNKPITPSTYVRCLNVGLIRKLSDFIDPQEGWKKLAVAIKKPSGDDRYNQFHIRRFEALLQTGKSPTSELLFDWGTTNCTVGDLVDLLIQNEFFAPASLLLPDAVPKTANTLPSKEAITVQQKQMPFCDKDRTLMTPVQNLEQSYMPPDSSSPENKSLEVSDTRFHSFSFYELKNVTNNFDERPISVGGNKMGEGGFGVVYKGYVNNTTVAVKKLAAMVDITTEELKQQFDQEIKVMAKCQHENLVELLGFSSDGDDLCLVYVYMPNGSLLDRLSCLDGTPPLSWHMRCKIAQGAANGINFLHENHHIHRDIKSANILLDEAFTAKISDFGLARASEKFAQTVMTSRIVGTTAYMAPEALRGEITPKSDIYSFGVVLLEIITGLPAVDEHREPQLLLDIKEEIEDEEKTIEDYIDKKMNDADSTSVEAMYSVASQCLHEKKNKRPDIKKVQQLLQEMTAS
# Test: IRAK4 Biochemical Assay (TR-FRET, STK1 KinEASE)
# Condition Parameters: 500 μM ATP, Table 2 first part (compounds 1-32), read-out: IC50 HTRF
pIC50: −log10 of the molar value.
Property Name: pIC50

If you can, please state the reported pIC50 value of `CC(=O)N[C@H]1CC[C@H](c2nnc(-c3cnc(-c4ccc5cc(C#N)cnn45)cc3NC(C)C)s2)CC1` .
> 9.00

* * *

# Test Target: IRAK4 enzyme (Homo sapiens, UniProt Q9NWZ3)
# Construct: purchased Carna Biosciences, Chuo-ku, Kobe, Japan
# Test: IRAK4 Biochemical Assay (TR-FRET, STK1 KinEASE)
# Condition Parameters: 500 μM ATP, Table 2 second part (compounds 33-343), read-out: IC50 IRAK4-HTBS
Grouping key: IC50. Bins: lower (below 0.6 nM), middle (0.6 nM to below 0.9 nM), upper (0.9 nM or more)

Solved cases (6 shown):
{"Chemical Structure": "CC(=O)N[C@@H]1[C@@H]2C[C@H]1CN(c1nnc(-c3cnc(-c4ccc5cc(C#N)cnn45)cc3N[C@H](C)C#N)s1)C2", "Test Target": "IRAK4 enzyme (Homo sapiens, UniProt Q9NWZ3)", "Label Value": "lower"}
{"Chemical Structure": "CC(=O)NC[C@H]1C[C@H](c2nnc(-c3cnc(-c4ccc5cc(C#N)cnn45)cc3NC(C)C)s2)C1", "Test Target": "IRAK4 enzyme (Homo sapiens, UniProt Q9NWZ3)", "Label Value": "lower"}
{"Chemical Structure": "COC(=O)N[C@H]1CC[C@H](Nc2cc(-c3ccc4cc(C#N)cnn34)ncc2-c2nnc(N3C[C@H]4CC[C@@H](C3)[C@@H]4NC(C)=O)s2)CC1", "Test Target": "IRAK4 enzyme (Homo sapiens, UniProt Q9NWZ3)", "Label Value": "middle"}
{"Chemical Structure": "CC1(Nc2cc(-c3ccc4cc(C#N)cnn34)ncc2-c2nnc(N3C[C@H]4CC[C@@H](C3)[C@H]4O)s2)COC1", "Test Target": "IRAK4 enzyme (Homo sapiens, UniProt Q9NWZ3)", "Label Value": "lower"}
{"Chemical Structure": "N#Cc1cnn2c(-c3cc(NC4CCOCC4)c(-c4nnc([C@H]5CC[C@H](NC(=O)C6CC6)CC5)s4)cn3)ccc2c1", "Test Target": "IRAK4 enzyme (Homo sapiens, UniProt Q9NWZ3)", "Label Value": "upper"}
{"Chemical Structure": "COC(=O)NC[C@H]1C[C@H](Nc2cc(-c3ccc4cc(C#N)cnn34)ncc2-c2nnc([C@H]3CC[C@H](NC(=O)C4CC4)CC3)s2)C1", "Test Target": "IRAK4 enzyme (Homo sapiens, UniProt Q9NWZ3)", "Label Value": "upper"}

GET /class?item= `CC(C)Nc1cc(-c2ccc3cc(C#N)cnn23)ncc1-c1nnc([C@H]2CC[C@H](NC(=O)C(C)(C)O)CC2)s1`
middle

In plain terms, what class is `CC(=O)N[C@@H]1[C@@H]2CC[C@H]1CN(c1nnc(-c3cnc(-c4ccc5cc(C#N)cnn45)cc3NC(C)C)s1)C2` ?
middle

Lab note: sort `CC(C)Nc1cc(-c2ccc3cc(C#N)cnn23)ncc1-c1nnc(C(=O)N[C@H]2C[C@@H](O)C2)s1` into the matching IC50 band.
middle

Would you mind sorting `CC(=O)N[C@H]1C[C@H](c2nnc(-c3cnc(-c4ccc5cc(C#N)cnn45)cc3NC3COC3)s2)C1` into the appropriate category?
upper

Just checking, what class would you give `CC(=O)N[C@@H]1[C@@H]2CN(c3nnc(-c4cnc(-c5ccc6cc(C#N)cnn56)cc4NC(C)C)s3)C[C@@H]21` here?
lower

Lab log: `CC1(Nc2cc(-c3ccc4cc(C#N)cnn34)ncc2-c2nnc([C@H]3CC[C@H](NC(=O)C4CC4)CC3)s2)COC1` — assign IC50 category
upper

# bin lookup: classify `CC(C)Nc1cc(-c2ccc3cc(C#N)cnn23)ncc1-c1nnc(C(=O)N[C@H]2C[C@H](O)C2)s1` by its IC50
lower

Please classify: `COC(=O)NC[C@H]1C[C@H](Nc2cc(-c3ccc4cc(C#N)cnn34)ncc2-c2nnc(N3CCN4CCOC[C@H]4C3)s2)C1`
upper

Which class is correct for the following molecule? `CCOC(=O)Cc1nnc(-c2cnc(-c3ccc4cc(C#N)cnn34)cc2NC(C)C)s1`
upper

Band for `CC(=O)N[C@H]1C[C@H](c2nnc(-c3cnc(-c4ccc5cc(C#N)cnn45)cc3NC(C)C)s2)C1` ?
lower

Class for `CC(C)Nc1cc(-c2ccc3cc(C#N)cnn23)ncc1-c1nnc(N2C[C@H]3CC[C@@H](C2)[C@@H]3NS(C)(=O)=O)s1` ?
upper

Just checking, what class would you give `CC(C)Nc1cc(-c2ccc3cc(C#N)cnn23)ncc1-c1nnc(N2C[C@H]3CC[C@@H](C2)[C@@H]3NC(=O)N2CCOCC2)s1` here?
upper

Please classify: `CC(=O)NC[C@H]1C[C@@H](c2nnc(-c3cnc(-c4ccc5cc(C#N)cnn45)cc3NC(C)C)s2)C1`
lower

Just checking, what class would you give `CC(C)Nc1cc(-c2ccc3cc(C#N)cnn23)ncc1-c1nnc([C@H]2CC[C@H](NC(=O)N3CCOCC3)CC2)s1` here?
middle

Band for the recorded IC50 of `CC(C)Nc1cc(-c2ccc3cc(C#N)cnn23)ncc1-c1nnc(N2C[C@H]3CC[C@@H](C2)[C@@H]3NC(=O)C(C)(C)C(=O)O)s1` ?
middle
